- test_system: Human autotaxin enzyme (Homo sapiens)
- Construct: purchased R&D System
- method_description: Evaluation of autotaxin inhibitor, 18:0 Lyso PC / choline assay (Test Example 2)
- Assay type: biochemical
- condition_summary: human autotaxin enzyme, 18:0 Lyso PC substrate, choline assay, room temperature 2 hours; read-out: Inhibitor activity (IC50)
pIC50: −log10 of the molar value.

| molecule | pIC50 |
| --- | --- |
| Cc1nc(-c2ccc(Cl)cc2NC(=O)C2CC2)cc(=O)n1CC(=O)NCc1cc(=O)[nH]o1 | 7.00 to 8.00 |
| CCCCCNc1nc(-c2ccc(C(F)(F)F)cc2)cc(=O)n1Cc1cccc(C(=O)NCCC(=O)O)c1 | 6.00 to 7.00 |
| COC(=O)Nc1cc(C#N)ccc1-c1cc(=O)n(CC(=O)NCC2CNC(=O)C2)c(C)n1 (stereo not shown) | 7.00 to 8.00 |
| CN(C)C(=O)c1cccc(Cn2c(CCCC(F)(F)F)nc(-c3ccc(Cl)cc3)cc2=O)c1 | 7.00 to 8.00 |
| COC(=O)Nc1cc(Cl)ccc1-c1cc(=O)n(CC(=O)NCC2CNC(=O)C2)c(C)n1 (stereo not shown) | 7.00 to 8.00 |
| Cc1nc(C2=CCC(C(F)(F)F)CC2)cc(=O)n1CC(=O)NC1(C#N)CC1 (stereo not shown) | 6.00 to 7.00 |
| CCCCCc1nc(-c2ccc(Cl)cc2)cc(=O)n1Cc1cccc(C(=O)O)c1 | 7.00 to 8.00 |

Where do the numbers come from? From patent US10183949B2.
